- tested on: HLA-A*01:01 (Homo sapiens, UniProt P04439, A114D/A174V/A182V/D101N/D185E/E176A/E190D/L180R/Q94H/R68K/S129P/T187R/V100A/V91M/W191G)
- experiment description: MHC binding assay, UV-ligand exchange with β2m ELISA, HLA-A*01:01
- assay setup: peptide exchange yield
observed property: Peptide exchange

The cases that follow already have their Peptide exchange on record.
[
  {
    "substance": "16 (WIGDKSFEY; listed as Homo sapiens) [compound 16]",
    "observed property": "Peptide exchange",
    "endpoint result": "“++” (>20% = ++)"
  },
  {
    "substance": "191 (ISEAGKDLLY; listed as Homo sapiens) [compound 191]",
    "observed property": "Peptide exchange",
    "endpoint result": "“+++” (>50 =+++)"
  },
  {
    "substance": "190 (HVDQDLTTY; listed as Homo sapiens) [compound 190]",
    "observed property": "Peptide exchange",
    "endpoint result": "“++” (>20% = ++)"
  },
  {
    "substance": "6 (VTEGVAQTSFY; listed as Homo sapiens) [compound 6]",
    "observed property": "Peptide exchange",
    "endpoint result": "“++++” (>75% = ++++)"
  },
  {
    "substance": "8 (STDSAGSSY; listed as Homo sapiens) [compound 8]",
    "observed property": "Peptide exchange",
    "endpoint result": "“++++” (>75% = ++++)"
  }
]

Shifting focus to the substance that follows.
Prompt: Any idea what Peptide exchange was measured for 9 (YSHPQYSSY; listed as Homo sapiens) [compound 9] ?
Response: “++” (>20% = ++)

---

- tested on: HLA-A*24:02 (Homo sapiens, UniProt P04439, D101N/D140Y/D185E/E176V/E190D/F33S/G103R/G107R/I119L/I121M/I306V/K335N/L105A/L180Q/L300P/N151K/N90K/Q86E/Q94H/R106L/R138H/R89G/T104I/T345S/V100E/W191G/Y123F)
- experiment description: MHC binding assay, UV-ligand exchange with β2m ELISA, HLA-A*24:02
- assay setup: peptide exchange yield
observed property: Peptide exchange

The cases that follow already have their Peptide exchange on record.
[
  {
    "substance": "75 (RFYLLTEHF; listed as Homo sapiens) [compound 75]",
    "Peptide exchange": "“+++” (>50 = +++)"
  },
  {
    "substance": "72 (TYVENLRLL; listed as Homo sapiens) [compound 72]",
    "Peptide exchange": "“+++” (>50 = +++)"
  },
  {
    "substance": "61 (IFKEHNFSF; listed as Homo sapiens) [compound 61]",
    "Peptide exchange": "“++++” (>75% = ++++)"
  },
  {
    "substance": "57 (RFPPTPPLF; listed as Homo sapiens) [compound 57]",
    "Peptide exchange": "“++++” (>75% = ++++)"
  },
  {
    "substance": "73 (TYPQLEGFKF; listed as Homo sapiens) [compound 73]",
    "Peptide exchange": "“++++” (>75% = ++++)"
  },
  {
    "substance": "74 (SYADNILSF; listed as Homo sapiens) [compound 74]",
    "Peptide exchange": "“++++” (>75% = ++++)"
  },
  {
    "substance": "62 (YYLSHLERI; listed as Homo sapiens) [compound 62]",
    "Peptide exchange": "“++++” (>75% = ++++)"
  }
]

Prompt: Any idea what Peptide exchange was measured for 71 (RYLGKNWSF; listed as Homo sapiens) [compound 71] ?
Response: “++++” (>75% = ++++)

The reported numbers originate from patent US11135246B2.
